molecular target: KDR (VEGFR2) (Homo sapiens, UniProt P35968); assay: Z'-LYTE SelectScreen biochemical kinase assay KDR (VEGFR2); conditions: read-out: % Inhibition mean KDR (VEGFR2)
Sequence (P35968 20-1356): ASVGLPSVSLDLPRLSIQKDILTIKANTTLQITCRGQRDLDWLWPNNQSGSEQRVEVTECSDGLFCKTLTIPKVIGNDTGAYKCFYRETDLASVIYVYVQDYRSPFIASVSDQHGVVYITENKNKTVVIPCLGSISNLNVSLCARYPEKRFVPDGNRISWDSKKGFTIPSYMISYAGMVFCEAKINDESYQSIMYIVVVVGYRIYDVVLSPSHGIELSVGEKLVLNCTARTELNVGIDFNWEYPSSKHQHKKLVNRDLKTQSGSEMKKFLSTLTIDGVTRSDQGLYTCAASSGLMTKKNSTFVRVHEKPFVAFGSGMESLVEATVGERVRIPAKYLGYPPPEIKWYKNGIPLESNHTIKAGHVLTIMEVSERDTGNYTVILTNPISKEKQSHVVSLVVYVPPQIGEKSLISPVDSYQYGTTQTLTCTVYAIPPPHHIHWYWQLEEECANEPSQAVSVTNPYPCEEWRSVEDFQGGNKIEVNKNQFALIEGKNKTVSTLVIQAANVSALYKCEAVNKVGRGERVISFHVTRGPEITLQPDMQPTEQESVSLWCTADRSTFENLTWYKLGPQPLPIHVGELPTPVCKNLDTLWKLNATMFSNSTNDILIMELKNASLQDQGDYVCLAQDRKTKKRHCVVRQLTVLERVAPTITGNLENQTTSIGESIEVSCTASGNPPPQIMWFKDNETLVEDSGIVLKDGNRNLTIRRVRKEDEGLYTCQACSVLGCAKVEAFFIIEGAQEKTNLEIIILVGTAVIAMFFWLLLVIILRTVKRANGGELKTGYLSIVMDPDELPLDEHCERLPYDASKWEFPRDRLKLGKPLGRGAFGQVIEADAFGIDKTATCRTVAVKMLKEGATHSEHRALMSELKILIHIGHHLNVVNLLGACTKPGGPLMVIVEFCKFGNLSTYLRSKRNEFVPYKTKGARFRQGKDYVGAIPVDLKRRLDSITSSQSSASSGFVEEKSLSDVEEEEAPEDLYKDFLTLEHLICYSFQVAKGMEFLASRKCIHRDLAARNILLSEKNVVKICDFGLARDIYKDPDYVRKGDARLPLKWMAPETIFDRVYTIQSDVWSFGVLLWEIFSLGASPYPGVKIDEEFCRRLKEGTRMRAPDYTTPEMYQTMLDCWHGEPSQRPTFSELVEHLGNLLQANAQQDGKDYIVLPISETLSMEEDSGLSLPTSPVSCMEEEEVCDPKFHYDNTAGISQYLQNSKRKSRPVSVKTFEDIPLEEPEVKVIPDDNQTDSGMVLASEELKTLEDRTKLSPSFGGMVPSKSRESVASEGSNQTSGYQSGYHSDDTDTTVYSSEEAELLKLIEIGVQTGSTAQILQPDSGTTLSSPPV
assayReadout: inhibition at 10 µM (%)

Completed entries (count: 5):
[
  {
    "molecule": "CCn1ncc2c1CCC(Nc1nc3c(-c4ccc(F)cc4)cccn3n1)C2 (stereo not drawn) [Example 55]",
    "endpointResult": 12
  },
  {
    "molecule": "CCn1ncc2c1CCC(Nc1nc3c(-c4cccnc4)cccn3n1)C2 (stereo not drawn) [Example 63]",
    "endpointResult": 8
  },
  {
    "molecule": "CCn1nc(Cl)c2c1CCC(Nc1nc3c(-c4ccc(F)cc4C)cccn3n1)C2 (stereo not drawn) [Example 48]",
    "endpointResult": 2
  },
  {
    "molecule": "CCCCCn1ncc2c1CCC(Nc1nc3c(-c4ccc(F)cc4C)cccn3n1)C2 (stereo not drawn) [Example 47]",
    "endpointResult": 6
  },
  {
    "molecule": "CCn1ncc2c1CCC(Nc1nc3c(-c4cccnc4OC)cccn3n1)C2 (stereo not drawn) [Example 69]",
    "endpointResult": 8
  }
]

[P] Cc1cc(F)ccc1-c1cccn2nc(NC3CCc4c(cnn4C)C3)nc12 (stereo not drawn) [Example 10]
[Q] CCn1nnc2c1CCC(Nc1nc3c(-c4ccc(F)cc4C)cccn3n1)C2 (stereo not drawn) [Example 51]
**Q:** Just curious, which one has the larger inhibition at 10 µM reading, P or Q ? Your answer should be the label attached to the chosen record.
**A:** P
(P: -2%, Q: -10%)

[a] Cc1cc(F)ccc1-c1cccn2nc(Nc3ccc4c(cnn4C)c3)nc12 [Example 9]
[b] CCn1ncc2c1CCC(Nc1nc3c(-c4cnccc4OC)cccn3n1)C2 (stereo not drawn) [Example 68]
[c] CCCCn1ncc2c1CCC(Nc1nc3c(-c4ccc(F)cc4C)cccn3n1)C2 (stereo not drawn) [Example 46]
[d] CCn1ncc2c1CC[C@@H](Nc1nc3c(-c4ccc(F)c(Cl)c4)cccn3n1)C2 [Example R-61]
**Q:** List items by inhibition at 10 µM in falling order. A complete answer lists every label in the requested sequence.
**A:** a, b, c, d

[a] CCn1ncc2c1CCC(Nc1nc3c(-c4ccccc4)cccn3n1)C2 (stereo not drawn) [Example 57]
[b] Cc1cc(F)ccc1-c1cccn2nc(NC3CCc4c(cnn4C(C)C)C3)nc12 (stereo not drawn) [Example 44]
[c] Cc1cc(F)ccc1-c1cccn2nc(NC3CCc4c(cnn4CC(C)C)C3)nc12 (stereo not drawn) [Example 45]
**Q:** List items by inhibition at 10 µM in falling order. A complete answer lists every label in the requested sequence.
**A:** a, b, c
(a: 18%, b: 3%, c: -10%)

[P] CCn1ncc2c1CCC(Nc1nc3c(-c4ccc(C)nc4)cccn3n1)C2 (stereo not drawn) [Example 67]
[Q] CCn1ncc2c1CCC(Nc1nc3c(-c4cncc(Cl)c4)cccn3n1)C2 (stereo not drawn) [Example 73]
[R] CCn1ncc2c1CCC(Nc1nc3c(-c4cccc(Cl)c4)cccn3n1)C2 (stereo not drawn) [Example 59]
**Q:** List items by inhibition at 10 µM in falling order. A complete answer lists every label in the requested sequence.
**A:** P, Q, R

Just for reference, patent US11339161B2 is where these values come from.
